Assay: in vivo
Conditions: water louse (Asellus aquaticus), 187 ng/L
Observable: concentration at 60 min (ng/g)
Express it in ng/g; write the number only.

-- ask Given COC(=O)C(c1ccccc1)C1CCCCN1 (stereo not shown) [methylphenidate] , state its recorded concentration at 60 min.
-- reply 0.2

---

Assay: in vivo
Conditions: nine-spine stickleback (Pungitius pungitius), 187 ng/L
Observable: concentration at 60 min (ng/g)
Numeric only. Scale: ng/g

-- ask Please give the measured concentration at 60 min for this compound: COC(=O)C(c1ccccc1)C1CCCCN1 (stereo not shown) [methylphenidate]
-- reply 0.18
